target: PolQ ATPase enzyme (1-894) (Homo sapiens (Human)); experiment: Polθ ATPase enzymatic assay (0.5 nM enzyme concentration), ADP-Glo; type: biochemical; settings: 0.5 nM PolQ ATPase enzyme (1-894); average IC50
Sequence (O75417 1-894): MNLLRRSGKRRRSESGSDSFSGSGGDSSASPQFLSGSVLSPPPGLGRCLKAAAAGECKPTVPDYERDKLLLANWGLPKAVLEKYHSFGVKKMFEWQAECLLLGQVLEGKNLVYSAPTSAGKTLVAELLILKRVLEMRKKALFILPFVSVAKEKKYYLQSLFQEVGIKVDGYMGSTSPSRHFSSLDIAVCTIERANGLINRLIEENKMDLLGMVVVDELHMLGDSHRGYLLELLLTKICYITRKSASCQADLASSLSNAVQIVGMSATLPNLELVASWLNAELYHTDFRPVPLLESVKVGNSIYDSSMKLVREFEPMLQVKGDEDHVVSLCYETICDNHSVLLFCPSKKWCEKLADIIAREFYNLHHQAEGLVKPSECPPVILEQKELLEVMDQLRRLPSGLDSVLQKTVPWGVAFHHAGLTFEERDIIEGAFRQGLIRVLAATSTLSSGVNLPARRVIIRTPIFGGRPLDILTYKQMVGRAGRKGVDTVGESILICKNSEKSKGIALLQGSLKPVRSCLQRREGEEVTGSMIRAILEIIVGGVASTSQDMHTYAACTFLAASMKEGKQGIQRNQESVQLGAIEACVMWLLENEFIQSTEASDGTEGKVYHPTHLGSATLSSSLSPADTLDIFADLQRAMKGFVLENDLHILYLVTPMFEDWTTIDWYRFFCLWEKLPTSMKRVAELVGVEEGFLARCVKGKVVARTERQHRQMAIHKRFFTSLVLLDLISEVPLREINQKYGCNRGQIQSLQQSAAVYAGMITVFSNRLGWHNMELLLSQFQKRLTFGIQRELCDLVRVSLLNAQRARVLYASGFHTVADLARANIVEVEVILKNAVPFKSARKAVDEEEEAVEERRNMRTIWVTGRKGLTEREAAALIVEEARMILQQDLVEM
Experimental Readout: IC50 (nM)
Report only the number, with the unit nM understood.

{"Compound": "COc1cnc(C(F)F)cc1-c1cc(N2CCN(C)CC2=O)ccc1C(=O)Nc1ncc(C#CC2CC2)s1 [Compound 217]", "Experimental Readout": "IC50", "Value": 1.9}

What the record says about COc1cnc(C(F)F)cc1-c1cc(-n2ccc(C)cc2=O)ncc1C(=O)Nc1nnc(C(C)(C)OC)s1 [Compound 576] : IC50 is 29
